TARGET ENTITY: sGC α1/β1 heterodimer stably expressed in CHO-K1 cells (CHO-K1/sGC) (Homo sapiens, UniProt Q02108+Q02153)
Sequence (Q02108 1-690): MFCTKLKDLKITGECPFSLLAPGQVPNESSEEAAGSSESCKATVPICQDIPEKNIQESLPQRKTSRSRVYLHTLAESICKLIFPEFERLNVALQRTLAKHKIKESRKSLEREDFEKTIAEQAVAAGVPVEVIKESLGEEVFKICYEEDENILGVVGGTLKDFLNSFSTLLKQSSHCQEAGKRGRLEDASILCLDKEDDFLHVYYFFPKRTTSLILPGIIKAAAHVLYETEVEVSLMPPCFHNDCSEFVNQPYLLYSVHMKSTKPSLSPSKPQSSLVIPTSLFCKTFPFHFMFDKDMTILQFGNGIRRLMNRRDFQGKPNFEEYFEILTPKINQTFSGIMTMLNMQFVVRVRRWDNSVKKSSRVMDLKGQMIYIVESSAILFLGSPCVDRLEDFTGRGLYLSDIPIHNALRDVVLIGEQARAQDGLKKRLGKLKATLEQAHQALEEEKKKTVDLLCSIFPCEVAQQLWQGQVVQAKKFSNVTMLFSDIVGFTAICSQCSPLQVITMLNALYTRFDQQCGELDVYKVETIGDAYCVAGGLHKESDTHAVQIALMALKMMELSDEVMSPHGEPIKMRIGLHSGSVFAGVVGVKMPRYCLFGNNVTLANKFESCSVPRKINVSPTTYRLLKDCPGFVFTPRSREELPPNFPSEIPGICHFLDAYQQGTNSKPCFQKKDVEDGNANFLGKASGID
Sequence (Q02153 1-619): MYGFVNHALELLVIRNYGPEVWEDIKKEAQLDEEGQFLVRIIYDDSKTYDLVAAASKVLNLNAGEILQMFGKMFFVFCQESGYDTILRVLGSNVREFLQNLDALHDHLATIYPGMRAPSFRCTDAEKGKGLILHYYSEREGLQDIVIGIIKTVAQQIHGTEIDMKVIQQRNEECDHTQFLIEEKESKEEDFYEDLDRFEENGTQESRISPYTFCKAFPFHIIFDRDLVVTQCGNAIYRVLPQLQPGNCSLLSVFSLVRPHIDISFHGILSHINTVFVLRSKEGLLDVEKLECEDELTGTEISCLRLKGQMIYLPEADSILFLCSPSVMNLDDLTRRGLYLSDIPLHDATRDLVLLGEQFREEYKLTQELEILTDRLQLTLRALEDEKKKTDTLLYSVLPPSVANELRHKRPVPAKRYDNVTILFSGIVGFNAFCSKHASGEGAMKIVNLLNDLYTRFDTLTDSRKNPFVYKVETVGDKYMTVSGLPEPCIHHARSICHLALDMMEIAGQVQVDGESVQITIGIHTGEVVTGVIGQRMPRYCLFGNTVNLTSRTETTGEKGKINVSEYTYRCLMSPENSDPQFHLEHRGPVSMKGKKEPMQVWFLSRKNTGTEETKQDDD
ASSAY INFO: Cell-based sGC Functional Assay (CASA Assay)
CONDITION SUMMARY: inflection point of cGMP generation in CHO-K1/sGC cells, 4P fit; 1 hr at 37° C.; read-out: IP
QUANTITY KIND: pEC50
# pEC50: negative log10 of molar concentration; output just the value

CCC1(c2ccc(OC)nc2)C(=O)Nc2nc(-c3nc(CCC(F)(F)C(F)(F)F)nc4c3cnn4C)nc(N)c21 (stereo not drawn) [Example 17]: 6.91

Query :: Which pEC50 value is on record for [2H]C([2H])([2H])n1ncc2c(-c3nc(N)c4c(n3)NC(=O)C4(C)c3ccc(F)cn3)nc(CCC(F)(F)C(F)(F)F)nc21 (stereo not drawn) [Example 2] ?
Result :: 7.14

Query :: Which pEC50 value is on record for Cn1cc(C2(C)C(=O)Nc3nc(-c4nc(CCC(F)(F)C(F)(F)F)nc5c4cnn5C)nc(N)c32)cn1 (stereo not drawn) [Example 23] ?
Result :: 6.36

Query :: Which pEC50 value is on record for Cn1cc(C2(C3CC3)C(=O)Nc3nc(-c4nc(CCC(F)(F)C(F)(F)F)nc5c4cnn5C)nc(N)c32)nn1 (single isomer, unassigned) [Example 55] ?
Result :: 6.60

Query :: Which pEC50 value is on record for Cn1ncc2c(-c3nc(N)c4c(n3)NC(=O)C4(c3nnc(C4CC4)o3)C3CC3)nc(CCC(F)(F)C(F)(F)F)nc21 (stereo not drawn) [Example 44] ?
Result :: 6.65

Query :: Which pEC50 value is on record for [2H]C([2H])([2H])n1ncc2c(-c3nc(N)c4c(n3)NC(=O)C4(c3nnc(C)o3)C3CC3)nc(CCC(F)(F)C(F)(F)F)nc21 (single isomer, unassigned) [Example 40A] ?
Result :: 6.43
